ΔTm Run 1 overview
# assay.system: LmxCLK1 (Leishmania mexicana, UniProt E9AMP2)
# Sequence (E9AMP2 1-422): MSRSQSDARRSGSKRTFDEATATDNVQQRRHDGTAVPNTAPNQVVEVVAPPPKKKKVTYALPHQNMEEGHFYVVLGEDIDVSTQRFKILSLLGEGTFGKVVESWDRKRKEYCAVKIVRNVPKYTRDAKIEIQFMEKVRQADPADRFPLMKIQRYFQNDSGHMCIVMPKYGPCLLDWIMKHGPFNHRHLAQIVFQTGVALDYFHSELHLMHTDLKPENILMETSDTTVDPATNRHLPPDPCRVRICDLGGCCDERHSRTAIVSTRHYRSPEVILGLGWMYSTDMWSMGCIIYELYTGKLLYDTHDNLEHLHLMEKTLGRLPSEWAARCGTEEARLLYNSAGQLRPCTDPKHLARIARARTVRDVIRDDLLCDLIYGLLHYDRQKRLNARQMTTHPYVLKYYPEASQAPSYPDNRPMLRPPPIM
# test.summary: biochemical
# Assay type: binding
# experimental.conditions: DSF, 10 µM compound, 2 µM LmxCLK1, Run 1
A number alone suffices; assume °C.

{"chemical.smiles": "COc1cc2ncnc(Nc3ccc(O)c(Br)c3)c2cc1OC", "ΔTm Run 1 [°C]": 0.1}
{"chemical.smiles": "O=C(O)[C@]1(Cc2cccc(Nc3nccs3)n2)CC[C@@H](Oc2cccc(Cl)c2F)CC1", "ΔTm Run 1 [°C]": -0.1}
{"chemical.smiles": "Nc1ccc(-c2ccc3ncc4ccc(=O)n(-c5cccc(C(F)(F)F)c5)c4c3c2)cn1", "ΔTm Run 1 [°C]": -0.1}
{"chemical.smiles": "C#Cc1cccc(Nc2ncnc3cc(OCCOC)c(OCCO)cc23)c1", "ΔTm Run 1 [°C]": 0.2}

From here, focus on the item given below.
The observed ΔTm Run 1 for `O=c1[nH]c2ccc(Cl)cc2c(N[C@@H]2CN3CCC2CC3)c1-c1nc2ccccc2[nH]1` when tested with LmxCLK1 (Leishmania mexicana, UniProt E9AMP2) stands at 0.3
